target: human dopamine transporter (Homo sapiens (Human)); test: Human DAT (dopamine transporter) uptake assay; format: cell-based; settings: read-out: hDAT Ki
Reported pKi values are given for each entry in this list.
In simple prose, pKi is minus the logarithm base ten of a concentration in moles per litre.

Example entries and their recorded answers appear below.
In [3]: df
Out[3]:
                                   compound  observed
0  CNC[C@H](c1ccc(OC)c(C)c1)[C@H](O)c1cccnc1 [Compound 55]      5.79
1  CN(C)CC(C)(c1ccc2ccccc2c1)C(O)c1ccccc1 (centres unmarked) [Compound 86]      8.00
2  CNCC(c1ccc(Br)c(Cl)c1)[C@H](O)c1ccccc1 (some centres unmarked) [Compound 16]      8.18
3  CNC[C@H](c1ccc2ccccc2c1)[C@H](O)c1ccc2c(c1)OCCO2 [Compound 143]      6.98
4  CNC[C@H](c1ccc2ccccc2c1)[C@H](OCc1nc(C(=O)OC)co1)c1ccccc1 [Compound 84]      7.41
5  CNC[C@@H](c1ccc(Cl)c(Cl)c1)[C@@H](O)c1ccsc1 [Compound 106]      7.71

Continue with the next compound.
## Input Report value: pKi, system: human dopamine transporter (Homo sapiens (Human)), compound: CNCC(Cc1ccccc1)c1ccc2cccnc2c1 (centres unmarked) [Compound 75]
## Output 6.30

* * *

target: human dopamine transporter (Homo sapiens (Human), UniProt Q01959); assay: Human DAT (dopamine transporter) uptake assay; assay type: cell-based; settings: read-out: hDAT Ki
Sequence (Q01959 whole entry): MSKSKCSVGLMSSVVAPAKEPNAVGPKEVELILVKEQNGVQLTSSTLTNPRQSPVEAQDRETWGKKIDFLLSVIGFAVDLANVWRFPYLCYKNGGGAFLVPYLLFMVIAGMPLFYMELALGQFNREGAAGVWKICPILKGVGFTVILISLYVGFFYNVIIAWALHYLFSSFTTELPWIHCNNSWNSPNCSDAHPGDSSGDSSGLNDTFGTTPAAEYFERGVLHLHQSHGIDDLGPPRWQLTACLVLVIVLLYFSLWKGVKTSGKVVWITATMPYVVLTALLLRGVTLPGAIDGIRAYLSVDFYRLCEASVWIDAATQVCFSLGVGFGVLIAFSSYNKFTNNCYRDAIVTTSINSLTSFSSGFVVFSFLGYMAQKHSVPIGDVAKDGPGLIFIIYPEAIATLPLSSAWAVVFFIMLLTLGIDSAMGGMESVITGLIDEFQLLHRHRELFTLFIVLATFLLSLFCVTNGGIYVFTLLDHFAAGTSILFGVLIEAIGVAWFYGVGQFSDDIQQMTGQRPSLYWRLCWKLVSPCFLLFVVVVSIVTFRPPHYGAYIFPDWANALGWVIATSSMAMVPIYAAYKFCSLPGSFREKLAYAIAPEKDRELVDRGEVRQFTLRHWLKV
parameter: Ki (nM)
Report as a plain number; the unit nM is understood.

Please review the following examples before continuing.
In [3]: df
Out[3]:
                                   compound  observed
0  CNC[C@H](c1ccc(Cl)c(Cl)c1)[C@@H](O)c1ccccc1[N+](=O)[O-] [Compound 65]      18.1
1  CNC[C@@H](c1ccc(Br)c(Cl)c1)[C@@H](O)c1ccccc1 [Compound 110]        24
2  CNC[C@H](c1ccc2ccccc2c1)[C@H](O)c1cccnc1 (racemic) [Compound 62]        45
3  CNC[C@H](c1ccc2ccccc2c1)[C@H](OCc1cccn(C)c1=O)c1ccccc1 [Compound 31]      24.6
4  CNC[C@@H](c1ccc2ccccc2c1)[C@@H](O)c1ccccc1F [Compound 78]      26.1

## Input Using the record for NCC(c1ccc2ccccc2c1)C(O)c1ccc(F)cc1F (stereo not drawn) [Compound 107] , state its measured Ki.
## Output 126

## Input For the compound CNC[C@@H](Cc1ccccc1)c1ccc2ccccc2c1 [Compound 5] , give its measured Ki value.
## Output 10.1

## Input Report Ki, nothing else, for this compound: CNCC(Cc1ccccc1O)c1ccc2ccccc2c1 (stereo not drawn) [Compound 69]
## Output 21.9

## Input Supply recorded Ki for CNC[C@H](c1ccc(Cl)c(Cl)c1)[C@@H](O)c1cccc(I)c1 [Compound 165] here.
## Output 118

* * *

The molecules listed here are annotated with their Ki.
molecular target: human serotonin transporter (Homo sapiens (Human)); assay: Human SERT (serotonin transporter) uptake assay; format: cell-based; details: read-out: hSERT Ki
Sequence (P31645 whole entry): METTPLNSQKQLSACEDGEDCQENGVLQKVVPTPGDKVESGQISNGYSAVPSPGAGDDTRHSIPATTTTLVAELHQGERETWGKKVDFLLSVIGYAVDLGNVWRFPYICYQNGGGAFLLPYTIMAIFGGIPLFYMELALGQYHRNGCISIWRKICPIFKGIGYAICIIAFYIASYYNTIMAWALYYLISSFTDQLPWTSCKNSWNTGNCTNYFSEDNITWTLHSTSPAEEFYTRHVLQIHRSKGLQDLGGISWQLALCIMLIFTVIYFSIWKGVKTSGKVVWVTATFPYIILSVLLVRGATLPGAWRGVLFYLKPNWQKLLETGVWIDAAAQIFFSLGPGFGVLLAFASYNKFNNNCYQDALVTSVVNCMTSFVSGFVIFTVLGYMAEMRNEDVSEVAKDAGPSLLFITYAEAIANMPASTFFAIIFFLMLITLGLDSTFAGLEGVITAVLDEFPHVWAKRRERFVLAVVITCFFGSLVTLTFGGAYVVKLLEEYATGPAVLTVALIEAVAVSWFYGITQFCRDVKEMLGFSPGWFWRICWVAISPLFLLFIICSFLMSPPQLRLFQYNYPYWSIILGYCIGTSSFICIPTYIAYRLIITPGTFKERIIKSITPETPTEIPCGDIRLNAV
Your answer should be a plain number; it is taken to be in µM.

Before answering, review these 5 worked examples.
In [3]: df
Out[3]:
                                   molecule                             assayedsystem  parameter  unitinfo  observed
0  CNC[C@H](c1ccc2ccccc2c1)[C@@H](O)c1ccncc1Cl  human serotonin transporter (Homo sapiens (Human))         Ki        µM    0.0036
1  CCc1ccccc1[C@@H](O)[C@H](CNC)c1ccc(Cl)c(Cl)c1  human serotonin transporter (Homo sapiens (Human))         Ki        µM    0.0386
2  CNC[C@H](c1ccc(Cl)c(Cl)c1)[C@H](O)c1ccccc1OC  human serotonin transporter (Homo sapiens (Human))         Ki        µM    0.0092
3  CNC[C@H](c1ccc(Cl)c(Cl)c1)[C@H](O)c1cccc(N(C)C)c1 (single isomer, unassigned)  human serotonin transporter (Homo sapiens (Human))         Ki        µM     0.178
4  CNC[C@H](c1ccc2ccccc2c1)[C@H](O)c1cccnc1 (racemic)  human serotonin transporter (Homo sapiens (Human))         Ki        µM    0.0099

## Input Note Ki for the molecule shown: CNC[C@H](c1ccc(OC)c(C)c1)[C@H](O)c1ccccc1 (racemic)
## Output 0.0024

## Input Note Ki for the molecule shown: `CNC[C@H](c1ccc2ccccc2c1)[C@H](OCC(=O)N(C)OC)c1ccccc1`
## Output 0.0044

## Input Indicate its recorded Ki; the molecule in question is CNC[C@H](c1ccc2ccccc2c1)[C@H](O)c1ccccc1C (racemic) [Compound 56]
## Output 0.0067

## Input State its Ki for this molecule: `CNC[C@@H](c1ccc2ccccc2c1)[C@@H](O)c1ccccc1F`
## Output 0.0153

## Input Tell me measured Ki for CNCC(C[C@H](O)c1ccccc1)c1ccc2ccccc2c1 (stereo partly shown) please.
## Output 0.0161

## Input Please report the measured Ki for `CNC[C@H](c1ccc(Cl)c(Cl)c1)[C@@H](O)c1cccc(I)c1`
## Output 0.341

## Input Tell me its Ki given `CNC[C@H](c1ccc2ccccc2c1)[C@H](OCc1nc(C(=O)OC)co1)c1ccccc1` as the entry.
## Output 0.0033

## Input Note Ki for the molecule shown: `CNC[C@H](c1ccc2ccccc2c1)[C@H](OCC(=O)N1CCC1)c1ccccc1`
## Output 0.001

## Input For the molecule `CNC[C@H](c1ccc(Cl)c(Cl)c1)[C@H](O)c1ccccc1I` , report Ki.
## Output 0.0781

## Input Return reported Ki. Input molecule: `NC[C@@H](Cc1ccccc1O)c1ccc2ccccc2c1`
## Output 0.116

## Input Output measured Ki for this item: CNC[C@H](c1ccc2ccccc2c1)[C@H](O)c1cc(F)cc(F)c1 (racemic) [Compound 41]
## Output 0.0525

## Input Please indicate Ki recorded for CNCC(Cc1ccccc1O)c1ccc2ccccc2c1 (stereo not shown) [Compound 69]
## Output 0.0212

## Input Supply measured Ki of `CCCNC(=O)CO[C@H](c1ccccc1)[C@H](CNC)c1ccc2ccccc2c1` in your reply.
## Output 0.0011

## Input Indicate the recorded Ki value for this molecule: CNC[C@H](c1ccc2ccccc2c1)[C@H](O)c1ccc(Cl)s1 (single isomer, unassigned)
## Output 0.0059

## Input Output measured Ki for this item: `CNC[C@H](c1ccc2ccccc2c1)[C@H](O[C@H](C)C(=O)N1CCCC1)c1ccccc1`
## Output 0.013

## Input Please look at this molecule and report its Ki: `CNC[C@H](c1ccc2ccccc2c1)[C@H](Cl)c1ccccc1`
## Output 0.0101

## Input Supply recorded Ki for `CN1CCO[C@@H](c2ccccc2)[C@H](c2ccc3ccccc3c2)C1` here.
## Output 0.167

* * *

experiment: pKa of basic centres (Table 1); assay type: physicochemical; details: second base in the same molecule (if present); read-out: pKa (Base 2)
parameter: pKa
Form field (numeric): enter value without unit.

These recorded examples may help you get a feel for the data.
In [3]: df
Out[3]:
                                   compound  parameter  observed
0  CNC[C@H](c1ccc2ccccc2c1)[C@H](O)c1cncc(OC)c1 [Compound 92]        pKa       4.5
1  CNC[C@H](c1ccc(Cl)c(Cl)c1)[C@H](O)c1cncc(OC)c1 [Compound 166]        pKa       4.5
2  CNCC(Cc1cccnc1)c1ccc(Cl)c(Cl)c1 (racemic) [Compound 80]        pKa       5.2

## Input Tell us which pKa value is on record for CNC[C@H](c1ccc(Cl)c(Cl)c1)[C@@H](O)c1cccc(N)c1 [Compound 63]
## Output 4.3

## Input Please report the measured pKa for C[C@](CN)(Cc1cccnc1)c1ccc2ccccc2c1 [Compound 42]
## Output 5.2

## Input Specify measured pKa for CNC[C@H](c1ccc(Cl)c(Cl)c1)[C@H](O)c1ccncc1 (racemic) [Compound 155] .
## Output 5.3

## Input Consider the compound CNC[C@@H](c1ccc2ccccc2c1)[C@H](O)c1ccccn1 [Compound 99] . State its measured pKa.
## Output 4.1

## Input Please report the measured pKa for CNC[C@H](c1ccc2ccccc2c1)[C@H](O)c1cccnc1 (racemic) [Compound 62]
## Output 5.1

## Input Output pKa of CNC[C@H](c1ccc(Cl)c(Cl)c1)[C@@H](O)c1cccnc1OC [Compound 104]
## Output 3.2

* * *

test: pKa of basic centres (Table 1); format: physicochemical; settings: first base, e.g., an aliphatic primary, secondary, or tertiary amine; read-out: pKa (Base 1)
pKa listing for selected compounds.
# respond with the number and nothing more

Below, each entry is followed by its recorded pKa result.
>>> print(df.to_string())
                      structuresmilesstring  observed
0  CNC[C@H](c1ccc(Cl)c(Cl)c1)[C@@H](O)c1ccccc1-c1cccs1       9.4
1  CN1CCO[C@@H](c2ccccc2)[C@H](c2ccc3ccccc3c2)C1       8.2
2  CCOC(=O)CO[C@H](c1ccccc1)[C@H](CNC)c1ccc2ccccc2c1       9.6
3  CNC[C@H](c1ccc2ccccc2c1)[C@H](O)c1ccc2c(c1)OCCO2       9.7
4  NC[C@@H](c1ccc2ccccc2c1)[C@@H](O)c1ccc(Cl)nc1       8.3

## Input Look up pKa of `NC[C@@H](c1ccc2ccccc2c1)[C@@H](O)c1ccccc1` and report it.
## Output 8.7

## Input Please report pKa for the following compound: `CNC[C@@H](c1ccc2ccccc2c1)[C@@H](O)c1cccs1`
## Output 9.7
